# Test system: Rattus norvegicus
# ASSAY OVERVIEW: Hepatotoxicity in Wistar albino rat assessed as change in serum ALT level at 0.5 mg/kg/day, ip administered for 5 days measured after second compound dose
# CONDITION PARAMETERS: in vivo, 120 h
QUANTITY MEASURED: ALT (U/L)
# number only, unit U/L dropped from output

Below are worked cases with known answers.
{"STRUCTURE SMILES": "O=c1oc2ccccc2c(O)c1-c1csc(Nc2cccc([N+](=O)[O-])c2)n1", "MEASUREMENT TARGET": "Rattus norvegicus", "UOM": "U/L", "ALT": 65.1}
{"STRUCTURE SMILES": "O=c1oc2ccccc2c(O)c1-c1csc(Nc2ccc(S(=O)(=O)O)cc2)n1", "MEASUREMENT TARGET": "Rattus norvegicus", "UOM": "U/L", "ALT": 63}
{"STRUCTURE SMILES": "CCOC(=O)C(C(=O)OCC)=C(C)c1c(O)c2ccccc2oc1=O", "MEASUREMENT TARGET": "Rattus norvegicus", "UOM": "U/L", "ALT": 55.5}

Please look at the following compound next.
INPUT: Would you kindly share the measured ALT for Cc1cccc(Nc2nc(-c3c(O)c4ccccc4oc3=O)cs2)c1 ?
OUTPUT: 62.4

----------
# Tested on: Rattus norvegicus
# ASSAY OVERVIEW: Hepatotoxicity in Wistar albino rat assessed as change in serum ALT level at 0.5 mg/kg, ip measured after 24 hrs
# Format: toxicity, organism-based
# Design: dose 0.5 mg/kg, route intraperitoneal
# CONDITION PARAMETERS: in vivo
In this section, each of the compounds is paired with its reported Activity.
# number only, unit U/L dropped from output

{"COMPOUND": "COC(=O)/C(C(=O)O)=C(\\C)c1c(O)c2ccccc2oc1=O", "UOM": "U/L", "VALUE REPORTED": 51.8}
{"COMPOUND": "O=C(O)CCCCNc1nc(-c2c(O)c3ccccc3oc2=O)cs1", "UOM": "U/L", "VALUE REPORTED": 52.6}
{"COMPOUND": "CC(=O)c1c(O)c2ccccc2oc1=O", "UOM": "U/L", "VALUE REPORTED": 34.8}
{"COMPOUND": "O=c1oc2ccccc2c(O)c1-c1csc(Nc2cccc([N+](=O)[O-])c2)n1", "UOM": "U/L", "VALUE REPORTED": 52.4}
{"COMPOUND": "COC(=O)/C=C(/C)c1c(O)c2ccccc2oc1=O", "UOM": "U/L", "VALUE REPORTED": 57.2}
{"COMPOUND": "CCN(CC)c1nc(-c2c(O)c3ccccc3oc2=O)cs1", "UOM": "U/L", "VALUE REPORTED": 64.7}
{"COMPOUND": "CCOC(=O)C(C(=O)OCC)=C(C)c1c(O)c2ccccc2oc1=O", "UOM": "U/L", "VALUE REPORTED": 71.8}
{"COMPOUND": "Cc1cccc(Nc2nc(-c3c(O)c4ccccc4oc3=O)cs2)c1", "UOM": "U/L", "VALUE REPORTED": 67.3}

INPUT: Would you kindly share the measured Activity for Cc1ccccc1Nc1nc(-c2c(O)c3ccccc3oc2=O)cs1 ?
OUTPUT: 59.5

INPUT: Would you kindly share the measured Activity for O=c1oc2ccccc2c(O)c1-c1csc(Nc2cccc3ccccc23)n1 ?
OUTPUT: 85

INPUT: Would you kindly share the measured Activity for O=c1oc2ccccc2c(O)c1-c1csc(Nc2ccc(S(=O)(=O)O)cc2)n1 ?
OUTPUT: 58.4

INPUT: Would you kindly share the measured Activity for CC(=O)CC(c1ccccc1)c1c(O)c2ccccc2oc1=O (stereo not given) ?
OUTPUT: 51.5

INPUT: Would you kindly share the measured Activity for COC(=O)/C(C(C)=O)=C(/C)c1c(O)c2ccccc2oc1=O ?
OUTPUT: 65.5

INPUT: Would you kindly share the measured Activity for CC(=O)C(C(C)=O)=C(C)c1c(O)c2ccccc2oc1=O ?
OUTPUT: 56.4

INPUT: Would you kindly share the measured Activity for O=c1oc2ccccc2c(O)c1-c1csc(Nc2ccc([N+](=O)[O-])cc2)n1 ?
OUTPUT: 68.7

----------
# Tested on: Plasma
# ASSAY OVERVIEW: Anticoagulant activity in Wistar albino rat plasma assessed as fibrin time
# Type: functional
In this section, each of the compounds is paired with its reported Time.
# number only, unit s dropped from output

Below are worked cases with known answers.
{"COMPOUND": "CC(=O)c1c(O)c2ccccc2oc1=O", "Time (s)": 44.9}
{"COMPOUND": "O=C(O)CCCCNc1nc(-c2c(O)c3ccccc3oc2=O)cs1", "Time (s)": 23.9}
{"COMPOUND": "C/C(=C(\\C#N)C(=O)O)c1c(O)c2ccccc2oc1=O", "Time (s)": 196.8}
{"COMPOUND": "COC(=O)/C=C(/C)c1c(O)c2ccccc2oc1=O", "Time (s)": 35.2}

INPUT: Give the reported Time for CC(=O)CC(c1ccccc1)c1c(O)c2ccccc2oc1=O (stereo not given) (system: Plasma).
OUTPUT: 33.4

----------
# Test system: Rattus norvegicus
# ASSAY OVERVIEW: Hepatotoxicity in Wistar albino rat assessed as change in serum ALP level at 0.5 mg/kg, ip measured after 24 hrs
# Assay type: toxicity, organism-based
# Set-up: dose 0.5 mg/kg, route intraperitoneal
# CONDITION PARAMETERS: in vivo
QUANTITY MEASURED: Activity (U/L)
# number only, unit U/L dropped from output

Below are worked cases with known answers.
{"COMPOUND": "CCN(CC)c1nc(-c2c(O)c3ccccc3oc2=O)cs1", "UOM": "U/L", "Activity": 192}
{"COMPOUND": "COC(=O)/C(C(C)=O)=C(/C)c1c(O)c2ccccc2oc1=O", "UOM": "U/L", "Activity": 285}
{"COMPOUND": "CC(=O)CC(c1ccccc1)c1c(O)c2ccccc2oc1=O (stereo unspecified)", "UOM": "U/L", "Activity": 170}

INPUT: Would you kindly share the measured Activity for O=c1oc2ccccc2c(O)c1-c1csc(Nc2ccc([N+](=O)[O-])cc2)n1 ?
OUTPUT: 204

INPUT: Would you kindly share the measured Activity for O=c1oc2ccccc2c(O)c1-c1csc(Nc2cccc3ccccc23)n1 ?
OUTPUT: 210

INPUT: Would you kindly share the measured Activity for Cc1cccc(Nc2nc(-c3c(O)c4ccccc4oc3=O)cs2)c1 ?
OUTPUT: 172

INPUT: Would you kindly share the measured Activity for Cc1ccccc1Nc1nc(-c2c(O)c3ccccc3oc2=O)cs1 ?
OUTPUT: 318

INPUT: Would you kindly share the measured Activity for O=C(O)CCCCNc1nc(-c2c(O)c3ccccc3oc2=O)cs1 ?
OUTPUT: 246

INPUT: Would you kindly share the measured Activity for CC(=O)C(C(C)=O)=C(C)c1c(O)c2ccccc2oc1=O ?
OUTPUT: 223

INPUT: Would you kindly share the measured Activity for CCOC(=O)C(C(=O)OCC)=C(C)c1c(O)c2ccccc2oc1=O ?
OUTPUT: 513

INPUT: Would you kindly share the measured Activity for O=c1oc2ccccc2c(O)c1-c1csc(Nc2ccc(S(=O)(=O)O)cc2)n1 ?
OUTPUT: 164

----------
# System: Rattus norvegicus
# ASSAY OVERVIEW: Hepatotoxicity in Wistar albino rat assessed as change in serum bilirubin level at 0.5 mg/kg, ip measured after 24 hrs
# Type: toxicity, organism-based
# Design: dose 0.5 mg/kg, route intraperitoneal
# CONDITION PARAMETERS: in vivo
QUANTITY MEASURED: Activity (µmol/L)
# number only, unit µmol/L dropped from output

INPUT: Would you kindly share the measured Activity for Cc1cccc(Nc2nc(-c3c(O)c4ccccc4oc3=O)cs2)c1 ?
OUTPUT: 1.8

INPUT: Would you kindly share the measured Activity for O=c1oc2ccccc2c(O)c1-c1csc(Nc2cccc([N+](=O)[O-])c2)n1 ?
OUTPUT: 2.2

INPUT: Would you kindly share the measured Activity for CCN(CC)c1nc(-c2c(O)c3ccccc3oc2=O)cs1 ?
OUTPUT: 2

INPUT: Would you kindly share the measured Activity for CC(=O)C(C(C)=O)=C(C)c1c(O)c2ccccc2oc1=O ?
OUTPUT: 1.5

INPUT: Would you kindly share the measured Activity for COC(=O)/C=C(/C)c1c(O)c2ccccc2oc1=O ?
OUTPUT: 1.4

INPUT: Would you kindly share the measured Activity for O=c1oc2ccccc2c(O)c1-c1csc(Nc2ccc([N+](=O)[O-])cc2)n1 ?
OUTPUT: 1.7

----------
# Test system: Rattus norvegicus
# ASSAY OVERVIEW: Hepatotoxicity in Wistar albino rat assessed as change in serum albumin level at 0.5 mg/kg, ip measured after 24 hrs
# Format: toxicity, organism-based
# Parameters: dose 0.5 mg/kg, route intraperitoneal
# CONDITION PARAMETERS: in vivo
Lab note - cut at 40 g/L for Activity: condition met if strictly below, condition not met if not.

{"COMPOUND": "CC(=O)c1c(O)c2ccccc2oc1=O", "CATEGORY LABEL": "condition met"}
{"COMPOUND": "C/C(=C(\\C#N)C(=O)O)c1c(O)c2ccccc2oc1=O", "CATEGORY LABEL": "condition met"}
{"COMPOUND": "O=c1oc2ccccc2c(O)c1-c1csc(Nc2ccc([N+](=O)[O-])cc2)n1", "CATEGORY LABEL": "condition met"}
{"COMPOUND": "Cc1cccc(Nc2nc(-c3c(O)c4ccccc4oc3=O)cs2)c1", "CATEGORY LABEL": "condition not met"}

INPUT: Strictly below 40 g/L: is that where Activity of CC(=O)CC(c1ccccc1)c1c(O)c2ccccc2oc1=O (stereo unspecified) sits?
OUTPUT: condition met

INPUT: Strictly below 40 g/L: is that where Activity of CCOC(=O)C(C(=O)OCC)=C(C)c1c(O)c2ccccc2oc1=O sits?
OUTPUT: condition met

INPUT: Strictly below 40 g/L: is that where Activity of Cc1ccccc1Nc1nc(-c2c(O)c3ccccc3oc2=O)cs1 sits?
OUTPUT: condition met

INPUT: Strictly below 40 g/L: is that where Activity of O=c1oc2ccccc2c(O)c1-c1csc(Nc2cccc3ccccc23)n1 sits?
OUTPUT: condition not met

INPUT: Strictly below 40 g/L: is that where Activity of O=C(O)CCCCNc1nc(-c2c(O)c3ccccc3oc2=O)cs1 sits?
OUTPUT: condition met

INPUT: Strictly below 40 g/L: is that where Activity of CCN(CC)c1nc(-c2c(O)c3ccccc3oc2=O)cs1 sits?
OUTPUT: condition met

INPUT: Strictly below 40 g/L: is that where Activity of COC(=O)/C(C(=O)O)=C(\C)c1c(O)c2ccccc2oc1=O sits?
OUTPUT: condition met

The measured values listed here are drawn from ChEMBL document CHEMBL2046403.
